Source listed as patent US20200317817A1.

Would you kindly list kon for each of these binders?
# TESTED TARGET: T1, recombinant N-terminal extracellular domain of the human PTH1R receptor (human, UniProt Q03431 27-188, limits assumed)
# T1 construct: domain: N-terminal extracellular domain; Bought reagent; also called N-ECD PTH1R; PTH1R N-terminal ECD
# T1 sequence (looked up): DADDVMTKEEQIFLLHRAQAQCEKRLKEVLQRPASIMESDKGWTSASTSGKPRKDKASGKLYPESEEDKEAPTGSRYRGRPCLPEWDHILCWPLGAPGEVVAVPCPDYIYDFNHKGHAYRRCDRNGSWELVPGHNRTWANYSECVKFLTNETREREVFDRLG
# PROCEDURE DETAILS: SPR, IgG captured, ECD injected
Respond with the bare value in M⁻¹ s⁻¹.

Ask: If you can, please state the reported kon value of XPA.85.334 (antibody, V domains shown, Light-chain-shuffled variant of XPA.85.012) VH: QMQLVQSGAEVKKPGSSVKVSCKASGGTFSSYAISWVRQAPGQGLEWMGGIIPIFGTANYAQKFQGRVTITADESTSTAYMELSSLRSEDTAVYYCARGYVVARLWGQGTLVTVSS VL: DIVMTQTPLSLSVTPGQPASITCKSSQSLLHIDGKTYLYWFLQKPGQPPQLLIYEVSNRFSGVPDRFSGTGSGTDFTLKISRVEAEDVGVYYCMQSLHFPITFGPGTRLEIK .
Result: 860000

Ask: If you can, please state the reported kon value of XPA.85.328 (antibody, V domains shown, IgG; also called Ab328) VH: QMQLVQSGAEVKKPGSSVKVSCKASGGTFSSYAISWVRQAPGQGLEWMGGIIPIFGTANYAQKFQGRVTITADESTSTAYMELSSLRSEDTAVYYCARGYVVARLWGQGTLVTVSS VL: DVVMTQTPLSLSVTPGQPASISCKSSQSLLHIDGKTYLYWYLQKSGQSPQLLIYEVSNRFSGVPDTFSGSGSGTDFTLKISRVEAEDVGVYYCMQSLHFPITFGQGTRLEIK .
Result: 560000

Ask: If you can, please state the reported kon value of XPA.85.347 (antibody, V domains shown, Light-chain-shuffled variant of XPA.85.012) VH: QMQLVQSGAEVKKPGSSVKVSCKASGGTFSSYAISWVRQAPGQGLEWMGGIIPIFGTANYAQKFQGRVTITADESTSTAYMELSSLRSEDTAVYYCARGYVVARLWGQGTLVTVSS VL: DIVMTQTPLSLSVTPGQPASISCKSSQSLFHDHGRTHLSWYLQKPGQPPQLLIFEASNRFSGVPDRFSGSGSGTDFTLKISRVEAEDVGVYYCMQGIHLPPAFGGGTKLEIK .
Result: 880000
